Reference for the values: PubChem BioAssay (NCI)

Test system: M14 melanoma
Experiment Description: NCI tumour cell line growth inhibition, 48 h
Observable: TGI

Compound	Observable	Reported Measurement
CSc1ccc(-c2cn3ccsc3n2)c(O)c1	TGI	> 100 µM
O=C1CC2[C@@H](N3CCCC3)CCC(N1Cc1ccccc1)C2(O)O (some centres undefined)	TGI	> 100 µM
Nc1ccccc1NC(=O)c1ccc(CSc2nc(N3CCOCC3)c3cccn3n2)cc1	TGI	> 100 µM
Cc1cc(NC(=O)c2ccc(NS(=O)(=O)CCO)cc2N2CCC3(CC2)CC3)nc(N2CCC(F)(F)CC2)n1	TGI	28.9 µM
COC(C)(C)C(O)C(O)C[C@H](C)C1CC=C2C1(C)CCC1[C@@]3(C)CCC(OC(C)=O)C(C)(C)C3CC(OC3OC(COC(C)=O)C(O)C(O)C3O)[C@@]21C (some centres undefined)	TGI	> 10 µM
COC(=O)c1cccc(NC(=O)Nc2ccc3oc(=O)c4ccccc4c3c2)c1	TGI	> 100 µM
CC(=O)OCC1OC(n2c(C)c(N=Nc3ccc(C)cc3)c(C)c(C#N)c2=S)C(OC(C)=O)C(OC(C)=O)C1OC(C)=O (centres undefined)	TGI	> 100 µM
CC1CC(N)=Nc2ccccc2N1Cc1ccccc1 (centres undefined)	TGI	29.3 µM
COc1ccc2[nH]c3c4c(c5cc(C(C)(C)C)ccc5c3c2c1)C(=O)N(c1ccccc1)C4=O	TGI	> 100 µM
